# System: BT-549
# method.notes: Cytotoxicity against human BT549 cells
# Assay type: functional, cell-based
The entries below are paired with their reported IC50.
Please state the figure in µg/mL; there is no need to write the unit.

# smiles.data, tgt, measured.metric, data.value
records = [
    ("COc1cccc2c1C(=O)c1c(O)c3c(c(O)c1C2=O)C[C@@](O)(C(=O)CO)C[C@@H]3O[C@H]1C[C@H](N)[C@H](O)[C@H](C)O1", "BT-549", "IC50", 1),
]

Now look at this entry.
Param readout = IC50; param system = BT-549; param query = CC[C@H]1CN2CCc3cc(OC)c(OC)cc3[C@@H]2C[C@@H]1C[C@H]1NCCc2cc(O)c(OC)cc21 ; response: value
0.86

* * *

# method.notes: in vitro
# condition.context: monkey, Vero cells
# Description: Selectivity index, ratio of IC50 for african green monkey (Cercopithecus aethiops) Vero cells to IC50 for chloroquine-resistant Plasmodium falciparum W2
Reported values of selectivity ratio for individual entries

# smiles.data, selectivity ratio
records = [
    ("CC[C@H]1CN2CCc3cc(O)c(OC)cc3[C@@H]2C[C@@H]1C[C@@]1(O)NCCc2cc(O)c(OC)cc21", "> 217"),
    ("C[C@@H]1CC[C@H]2[C@@H](C)C(=O)O[C@@H]3O[C@@]4(C)CC[C@@H]1[C@]32OO4", "> 1180"),
    ("CC[C@H]1CN2CCc3cc(OC)c(OC)cc3[C@@H]2C[C@@H]1C[C@@H]1NCCc2cc(O)c(OC)cc21", "> 35"),
    ("CC[C@H]1CN2CCc3cc(OC)c(OC)cc3[C@@H]2C[C@@H]1C[C@H]1NCCc2cc(O)c(OC)cc21", 193),
    ("CC[C@H]1CN2CCc3cc(OC)c(OC)cc3[C@@H]2C[C@@H]1C[C@@H]1NCCc2cc(O)c(O)cc21", "> 3"),
]

We now examine a further compound.
Need selectivity ratio of CC[C@H]1CN2CCc3cc(OC)c(OC)cc3[C@@H]2C[C@@H]1C[C@H]1NCCc2cc(OC)c(OC)cc21 , thanks.
5

* * *

# tgt: Integrin alpha-L (Homo sapiens)
# method.notes: Inhibition of LFA1:CD11a/CD18/ICAM1- mediated aggregation in PMA-induced human HL60 cells
# Format: cell-based
# condition.context: HL-60
# MIC values compiled below
Provide the reading as a plain figure in µg/mL.

Worked cases, answers included:
# smiles.data, tgt, data.value
data = [
    ("C=C1[C@@H](C)[C@H]2[C@H](Cc3ccccc3)NC(=O)[C@]23OC(=O)/C=C/[C@H](O)CCC[C@@H](C)C/C=C/[C@H]3[C@@H]1O", "Integrin alpha-L (Homo sapiens)", 2.5),
    ("CC[C@H]1CN2CCc3cc(OC)c(OC)cc3[C@@H]2C[C@@H]1C[C@H]1NCCc2cc(OC)c(OC)cc21", "Integrin alpha-L (Homo sapiens)", 0.26),
    ("CC[C@H]1CN2CCc3cc(O)c(OC)cc3[C@@H]2C[C@@H]1C[C@@]1(O)NCCc2cc(O)c(OC)cc21", "Integrin alpha-L (Homo sapiens)", 20.8),
]

Which MIC value is on record for CC[C@H]1CN2CCc3cc(OC)c(OC)cc3[C@@H]2C[C@@H]1C[C@H]1NCCc2cc(O)c(OC)cc21 ?
6.9

* * *

# Test system: Vero
# method.notes: Cytotoxicity against african green monkey Vero cells at 10 ug/ml
# Type: cell-based
# condition.context: chlorocebus sabaeus
measured.metric: Activity

Past entries and their recorded results:
# compound, tgt, Activity
records = [
    ("CC[C@H]1CN2CCc3cc(O)c(OC)cc3[C@@H]2C[C@@H]1C[C@@]1(O)NCCc2cc(O)c(OC)cc21 [KLUGINE]", "Vero", "Non-toxic"),
    ("CCN(CC)CCCC(C)Nc1ccnc2cc(Cl)ccc12 (stereo not given) [CHLOROQUINE]", "Vero", "Non-toxic"),
    ("CC[C@H]1CN2CCc3cc(OC)c(OC)cc3[C@@H]2C[C@@H]1C[C@@H]1NCCc2cc(O)c(O)cc21", "Vero", "Non-toxic"),
    ("C[C@@H]1CC[C@H]2[C@@H](C)C(=O)O[C@@H]3O[C@@]4(C)CC[C@@H]1[C@]32OO4 [ARTEMISININ]", "Vero", "Non-toxic"),
]

Now take the following compound into account.
Query: Activity; subject: CC[C@H]1CN2CCc3cc(OC)c(OC)cc3[C@@H]2C[C@@H]1C[C@@H]1NCCc2cc(O)c(OC)cc21 [ISOCEPHAELINE]
Non-toxic
